Collected set of pKi measured with Furin (Homo sapiens, UniProt P09958) across studies.
Sequence (P09958 whole entry): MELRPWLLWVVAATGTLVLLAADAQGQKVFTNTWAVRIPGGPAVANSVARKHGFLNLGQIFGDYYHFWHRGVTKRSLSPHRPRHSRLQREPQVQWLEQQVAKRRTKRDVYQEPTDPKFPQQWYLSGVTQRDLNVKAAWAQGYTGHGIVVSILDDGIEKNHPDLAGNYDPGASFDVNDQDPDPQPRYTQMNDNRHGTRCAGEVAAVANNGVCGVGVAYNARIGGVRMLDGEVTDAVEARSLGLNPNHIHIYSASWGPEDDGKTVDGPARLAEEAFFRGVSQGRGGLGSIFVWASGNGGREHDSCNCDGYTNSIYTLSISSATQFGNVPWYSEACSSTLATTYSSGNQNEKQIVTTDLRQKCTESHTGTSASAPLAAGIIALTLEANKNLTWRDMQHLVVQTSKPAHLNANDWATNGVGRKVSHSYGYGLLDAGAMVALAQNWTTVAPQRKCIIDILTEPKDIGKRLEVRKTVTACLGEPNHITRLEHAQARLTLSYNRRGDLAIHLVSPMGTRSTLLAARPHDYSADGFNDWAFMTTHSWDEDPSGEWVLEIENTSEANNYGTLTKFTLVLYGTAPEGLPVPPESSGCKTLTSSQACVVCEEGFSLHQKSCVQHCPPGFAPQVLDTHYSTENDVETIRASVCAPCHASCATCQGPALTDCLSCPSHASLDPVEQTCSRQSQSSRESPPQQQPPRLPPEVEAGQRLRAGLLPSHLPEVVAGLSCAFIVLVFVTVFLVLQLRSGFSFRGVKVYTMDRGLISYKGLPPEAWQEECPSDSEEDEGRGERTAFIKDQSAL
Keep it numeric: pKi is minus log10 of the concentration in mol/L.

Problem: Give the measured pKi of CC(C)[C@H](NC(=O)[C@H](CCCNC(=N)N)NCC(=O)Oc1ccccc1)C(=O)N[C@@H](CCCNC(=N)N)C(=O)NCCCCNC(=N)N .
Result: 7.11

Problem: Please give the result for CC(C)[C@H](NC(=O)[C@H](CCCN=C(N)N)NC(=O)Cc1ccccc1)C(=O)N[C@@H](CCCN=C(N)N)C(=O)NCCCN=C(N)N too.
Result: 7.20

Problem: Repeat with CCCCCCCCCCN[C@@H](CCCN=C(N)N)C(=O)N[C@H](C(=O)N[C@@H](CCCCN)C(=O)N[C@@H](CCCN=C(N)N)C(=O)CCC(=O)OC)C(C)C
Result: 6.62

Problem: Another compound to look at: NC(N)=NCCC[C@H](NC(=O)[C@H](CCCN=C(N)N)NC(=O)[C@H](CCCN=C(N)N)NC(=O)[C@H](CCCN=C(N)N)NC(=O)[C@H](CCCN=C(N)N)NC(=O)[C@@H](N)CCCN=C(N)N)C(=O)O
Result: 6.94

Problem: Same lookup for CC(C)[C@H](NC(=O)[C@H](CCCNC(=N)N)NCC(=O)Oc1ccccc1)C(=O)N[C@@H](CCCNC(=N)N)C(=O)Nc1ccc(CNC(=N)N)cc1 , please.
Result: 5.84

Problem: Query CC(C)[C@H](NC(=O)[C@H](CCCN=C(N)N)NCC(=O)Oc1ccccc1)C(=O)N[C@@H](CCCN=C(N)N)C(=O)NC1CCN(C(=N)N)CC1 next
Result: 7.28
